Counter-ions that a name gives are not always drawn.
Lab note: pIC50 readings collected with UniProt Q9NWM0 for the following compounds.
Answers are plain numbers, as −log10 of the molar value.

In the examples that follow, each entry is paired with its recorded pIC50.
1. CN1CC(C)(NC(=O)c2cc3nc(-c4ccccc4)cc(-c4ccccc4)n3n2)C1 ... 5.66
2. O=C(NC1CN(Cc2ccccc2)C1)c1cc2nc(-c3ccccc3)cc(-c3ccccc3)n2n1 ... 5.36
3. O=C(NCCNc1ccccn1)c1cc2nc(-c3ccccc3)cc(-c3ccccc3)n2n1 ... 6.81
4. O=C(NCC1CCCN1)c1cc2nc(-c3ccccc3)cc(-c3ccccc3)n2n1 (centres unmarked) ... 6.85
5. CN1CCC(CNC(=O)c2cc3nc(-c4ccccc4)cc(-c4ccccc4)n3n2)CC1 ... 6.04

# batch size: 2; output pIC50 per entry
1. CC(CN)CNC(=O)c1cc2nc(-c3ccccc3)cc(-c3ccccc3)n2n1 (centres unmarked) [Example 120, hydrochloride]
2. O=C(NCCCN1CCOCC1)c1cc2nc(-c3ccccc3)cc(-c3ccccc3)n2n1

1: 6.24; 2: 6.22

* * *

- targetOrSystem: SMOX (Homo sapiens (Human))
- Sequence (Q9NWM0 whole entry): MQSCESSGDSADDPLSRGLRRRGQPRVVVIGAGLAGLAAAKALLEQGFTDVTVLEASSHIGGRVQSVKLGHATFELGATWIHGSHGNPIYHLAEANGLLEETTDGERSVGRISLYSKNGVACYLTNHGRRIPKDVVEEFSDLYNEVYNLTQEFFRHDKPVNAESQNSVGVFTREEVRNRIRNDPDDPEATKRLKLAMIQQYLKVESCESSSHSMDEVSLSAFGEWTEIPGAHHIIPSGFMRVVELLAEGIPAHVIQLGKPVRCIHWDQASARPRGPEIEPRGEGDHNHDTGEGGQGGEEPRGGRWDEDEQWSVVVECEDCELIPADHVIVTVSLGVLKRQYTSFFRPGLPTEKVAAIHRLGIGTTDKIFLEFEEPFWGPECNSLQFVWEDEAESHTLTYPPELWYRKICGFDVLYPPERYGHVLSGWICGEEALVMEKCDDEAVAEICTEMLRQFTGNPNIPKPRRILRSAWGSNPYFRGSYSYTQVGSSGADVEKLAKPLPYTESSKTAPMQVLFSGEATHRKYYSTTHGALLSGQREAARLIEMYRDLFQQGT
Counter-ions that a name gives are not always drawn.
Please respond with reported IC50 for every item in the list.
Answers are plain numbers, in nM.

In the examples that follow, each entry is paired with its recorded IC50.
1) Cn1ccc(-c2cc(-c3ccccc3)nc3cc(C(=O)NCCCn4ccnc4)nn23)n1 ... 812
2) Cc1c(C(=O)NC2CN(C)C2)nn2c(-c3ccccc3)cc(-c3ccccc3)nc12 ... 110
3) O=C(NCCCn1ccnc1)c1cc2nc(-c3ccccc3)cc(C3CCCCC3)n2n1 ... 22
4) CN(CCCNC(=O)c1cc2nc(-c3ccccc3)cc(-c3ccccc3)n2n1)c1ccccn1 ... 850
5) O=C(NCCCn1ccnc1)c1cc2nc(-c3ccccc3)cc(N3CCC(F)CC3)n2n1 ... 241

# batch size: 7; output IC50 per entry
1. O=C(NCCCn1ccnc1)c1cc2nc(-c3ccccc3)cc(NC3CCCC3)n2n1
2. COc1ccc(-c2cc(-c3ccccc3)nc3cc(C(=O)NCCCn4ccnc4)nn23)cc1
3. CN1CC[C@H](NC(=O)c2cc3nc(-c4ccccc4)cc(-c4ccccc4)n3n2)C1
4. CN1CC(NC(=O)c2cc3nc(-c4ccccc4)cc(-c4ccccc4)n3n2)C1
5. O=C(NCCCn1ccnc1)c1cc2nc(-c3ccccc3)cc(C3CCCO3)n2n1 (centres unmarked)
6. CN1CC[C@H](NC(=O)c2cc3nc(-c4ccccc4)cc(N4CCCCC4)n3n2)C1 (single isomer, unassigned)
7. O=C(NC1CNC1)c1cc2nc(-c3ccccc3)cc(-c3ccccc3)n2n1

[595, 242, 712, 49, 1750, 1030, 282]

# batch size: 3; output IC50 per entry
1. O=C(NCCCn1ccnc1)c1cc2nc(-c3ccccc3)cc(C3CCCC3)n2n1
2. CN(C)CC(C)(C)CNC(=O)c1cc2nc(-c3ccccc3)cc(-c3ccccc3)n2n1
3. CCN1CCC[C@H]1CNC(=O)c1cc2nc(-c3ccccc3)cc(-c3ccccc3)n2n1

[305, 314, 401]

# batch size: 2; output IC50 per entry
1. CN1CCC(C)(CNC(=O)c2nn3c(-c4ccccc4)cc(-c4ccccc4)nc3c2I)C1 (centres unmarked)
2. NCCNC(=O)c1cc2nc(-c3ccccc3)cc(-c3ccccc3)n2n1 [Example 119, hydrochloride]

698
801
